This collection of values is drawn from patent US8178506B2.

Tested on: BJ, B16-F10, T47D, T47Dp53 and HeLa cells
Experiment: Cell cycle assay (propidium iodide flow cytometry), cell line panel
Format: cell-based
Conditions: 150 nM oligomeric compound, 4.5 μg/ml LIPOFECTIN, after 72 hours, propidium iodide flow cytometry
In the oligonucleotide strings, read from the 5' end, every base follows the letter of its sugar. An asterisk marks phosphorothioate; unmarked linkages are phosphodiester. Other units and linkages are bracketed, terminal groups are in braces. A string of capitals states the bases alone. e = 2'-O-(2-methoxyethyl) (MOE); [5mC] = 5-methylcytosine; d = 2'-deoxy (DNA)
Threshold-based label: G1 (percentage of cells in phase of the cell cycle) under 60% gives Y, G1 (percentage of cells in phase of the cell cycle) not under 60% gives N.

Reference set, count: 4
[
  {
    "substance": "327889 (antisense eG*eT*eG*eG*eT*eA*eA*eT*e[5mC]*e[5mC]*e[5mC]*eT*eG*eG*e[5mC]*eA*eA*eT*eG*eT*eG*eA*eT) [compound 327889]",
    "discrete.label": "Y"
  },
  {
    "substance": "340365 (antisense TACTTTATATAGAACACAAG; sugars from the 5' end e5 d10 e5, all phosphorothioate, methylation of C not given here) [compound 340365]",
    "discrete.label": "Y"
  },
  {
    "substance": "328342 (e[5mC]*eA*eA*eT*eT*dG*d[5mC]*dG*d[5mC]*dT*dA*d[5mC]*dA*dG*dA*eA*e[5mC]*eT*eG*eT) [compound 328342]",
    "discrete.label": "N"
  },
  {
    "substance": "327928 (antisense eA*eA*e[5mC]*e[5mC]*eG*eA*eT*eT*eT*e[5mC]*eA*eG*eA*eT*eG*eG*eT*eG*e[5mC]*eT*eA*eG) [compound 327928]",
    "discrete.label": "Y"
  }
]

Prompt line: Say whether its G1 (percentage of cells in phase of the cell cycle) is strictly beneath 60%. Entry: 327910 (antisense eT*eG*eA*eT*eA*eG*e[5mC]*e[5mC]*e[5mC]*eT*eG*eT*eA*e[5mC]*eA*eA*eT*eG*e[5mC]*eT*eG*e[5mC]*eT) [compound 327910]
Response line: Y
